Target: Aldehyde dehydrogenase 1A1 (Homo sapiens) (UniProt P00352)
Sequence (P00352 whole entry, looked up): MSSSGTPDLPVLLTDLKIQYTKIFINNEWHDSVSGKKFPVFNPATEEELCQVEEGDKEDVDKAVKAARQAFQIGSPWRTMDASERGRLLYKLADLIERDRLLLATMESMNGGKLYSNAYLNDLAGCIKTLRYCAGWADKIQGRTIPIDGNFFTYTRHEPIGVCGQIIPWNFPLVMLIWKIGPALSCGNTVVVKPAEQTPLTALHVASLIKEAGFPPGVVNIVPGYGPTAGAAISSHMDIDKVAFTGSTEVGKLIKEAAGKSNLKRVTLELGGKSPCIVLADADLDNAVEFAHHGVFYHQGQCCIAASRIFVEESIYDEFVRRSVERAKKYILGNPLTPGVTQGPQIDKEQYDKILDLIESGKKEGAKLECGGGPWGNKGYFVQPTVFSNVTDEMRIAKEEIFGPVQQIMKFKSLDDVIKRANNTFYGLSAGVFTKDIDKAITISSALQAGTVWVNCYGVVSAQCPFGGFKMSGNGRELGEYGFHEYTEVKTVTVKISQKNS
Assay: qHTS Assay for Inhibitors of Aldehyde Dehydrogenase 1 (ALDH1A1)
Settings: Purified ALDH1A1, NADH fluorescence, propionaldehyde substrate; series mostly up to 75.3 µM
The campaign covered roughly 220,000 compounds. About 16,000 (7.3%) were called active. Another 25% or so got no clear call; they are omitted. Calls follow the shape of the dose curve; as a rule, active = well fitted inhibition curve with a large enough effect (not every such curve was filed as active); inconclusive = small, poorly fitted or top-dose-only effect, or another doubt; inactive = no such curve, though single readings can be large or run the other way. The full list was thinned out, with actives kept by preference.
Tick one outcome: active, inactive

CCCCN1C(=O)/C(=C(/C#N)C(N)=O)c2ccccc21; active

*Q* Per the assay record, what outcome was assigned to `O=C(N/N=C/c1ccc(OCc2ccccc2)cc1)c1ccc(O)cc1` ?
*A* inactive

*Q* Per the assay record, what outcome was assigned to `Cn1nc(-c2ccccc2)c(CO)c1Sc1ccccc1` ?
*A* inactive

*Q* Per the assay record, what outcome was assigned to `CCN(CC)C(=O)CSc1nc2ccccc2n1CC(=O)N1CCN(c2ccccc2OC)CC1` ?
*A* inactive

*Q* Per the assay record, what outcome was assigned to `O=C(NCCc1c[nH]c2ccccc12)c1cc2ccccc2oc1=O` ?
*A* inactive

*Q* Per the assay record, what outcome was assigned to `COCCNC(=O)NC(=O)COC(=O)C1(c2ccc(Cl)cc2)CC1` ?
*A* inactive

*Q* Per the assay record, what outcome was assigned to CCOC(=O)C1=C(C)N=C2c3ccccc3C(=O)C2C1c1ccc(Br)cc1 (stereo not drawn) ?
*A* inactive

*Q* Per the assay record, what outcome was assigned to `Cc1nnc(SCC(=O)N2CCN(c3ccccc3)CC2)n1-c1ccccc1` ?
*A* inactive

*Q* Per the assay record, what outcome was assigned to `CSc1nc(N)c(C#N)c(-c2ccccc2Cl)c1C#N` ?
*A* active

*Q* Per the assay record, what outcome was assigned to CC(O)c1cccc(NC(=O)Cc2cccc3ccccc23)c1 (stereo not drawn) ?
*A* inactive

*Q* Per the assay record, what outcome was assigned to `CN1CCN(C(=O)N2c3ccccc3CCc3ccccc32)CC1` ?
*A* inactive

*Q* Per the assay record, what outcome was assigned to `Cc1ccc(OCc2n[nH]c(=S)n2-c2ccc(C)cc2)cc1` ?
*A* inactive

*Q* Per the assay record, what outcome was assigned to `Cc1ccc(OCc2n[nH]c(=S)n2-c2ccccc2)cc1` ?
*A* inactive

*Q* Per the assay record, what outcome was assigned to `O=C(Cn1cnc([N+](=O)[O-])n1)NCCc1ccccc1` ?
*A* inactive

*Q* Per the assay record, what outcome was assigned to `O=C(O)/C=C\C(=O)Nc1ccc(OCc2ccccc2)cc1` ?
*A* active

*Q* Per the assay record, what outcome was assigned to `O=C(N/N=C/c1ccc(Cl)cc1)c1nc2ccc([N+](=O)[O-])cc2c(=O)[nH]1` ?
*A* inactive

*Q* Per the assay record, what outcome was assigned to `CCCn1c(=O)c2ccccc2n2c(SCC(=O)/C(C#N)=C(\C)N)nnc12` ?
*A* inactive

*Q* Per the assay record, what outcome was assigned to OC[C@H]1O[C@@H](n2cnc3c(N[C@H]4CC5CCC4C5)ncnc32)[C@H](O)[C@@H]1O (stereo partly drawn) ?
*A* inactive

*Q* Per the assay record, what outcome was assigned to `COc1ccc(NC(=O)c2sc(N)nc2-c2ccccc2)cc1` ?
*A* inactive

*Q* Per the assay record, what outcome was assigned to COc1ccc(NC(=O)C(Br)C(C)C)cc1 (stereo not drawn) ?
*A* inactive

*Q* Per the assay record, what outcome was assigned to COc1cccc(NC(=O)C(Sc2nnnn2C)c2ccccc2)c1 (stereo not drawn) ?
*A* inactive

*Q* Per the assay record, what outcome was assigned to `CC(=C/c1ccccc1)/C=N/NC(=O)c1cc(C)oc1C` ?
*A* inactive

*Q* Per the assay record, what outcome was assigned to `CCOC(=O)Nc1ccccc1N1C(=O)c2ccccc2C1=O` ?
*A* inactive

###

Target: Aldehyde dehydrogenase 1A1 (Homo sapiens) (UniProt P00352)
Assay: qHTS Assay for Inhibitors of Aldehyde Dehydrogenase 1 (ALDH1A1)
Settings: Purified ALDH1A1, NADH fluorescence, propionaldehyde substrate; series mostly up to 75.3 µM
Screen size: about 220,000 compounds; about 16,000 (7.3%) were called active. Inconclusive results (about 25%) are left out. The call rests on the fitted dose curve; in most records, active means well fitted inhibition curve with a large enough effect (not every such curve was filed as active); inconclusive means small, poorly fitted or top-dose-only effect, or another doubt; inactive means no such curve, though single readings can be large or run the other way. Only a selection was taken, and actives are over-represented in it overall.
Tick one outcome: t (active), f (inactive)

COc1cc(C(=S)NCc2ccccc2)cc(Br)c1O; t
O=C(CN1CCN(C(=O)c2ccco2)CC1)Nc1ccc(Cl)c(C(F)(F)F)c1; t
Nc1ncnc(Nc2cccc(Cl)c2Cl)n1; f

*Q* Per the assay record, what outcome was assigned to `CCOC(=O)c1c(/N=C/C2C(=O)CC(C)(C)CC2=O)sc(C)c1C` ?
*A* t

*Q* Per the assay record, what outcome was assigned to `COc1ccc(C(=O)N2CCC(C(=O)Nc3ccc(C)cc3)CC2)cc1` ?
*A* f

*Q* Per the assay record, what outcome was assigned to `Cc1ccc(CNC(=O)CCNS(=O)(=O)c2ccc(Br)s2)cc1` ?
*A* f

*Q* Per the assay record, what outcome was assigned to `O=[N+]([O-])c1ccccc1Nc1ccc(O)cc1` ?
*A* f

*Q* Per the assay record, what outcome was assigned to `Cc1cccc(NC(=S)NC23CN4CN(CN(C4)C2)C3)c1` ?
*A* f

###

Target: Aldehyde dehydrogenase 1A1 (Homo sapiens)
Experiment: qHTS Assay for Inhibitors of Aldehyde Dehydrogenase 1 (ALDH1A1)
Settings: Purified ALDH1A1, NADH fluorescence, propionaldehyde substrate; series mostly up to 75.3 µM
Hit rate of the full screen: of about 220,000 compounds, about 16,000 (7.3%) were called active. Inconclusive results (about 25%) are left out. Calls come from the whole dose curve; as a rule, active = well fitted inhibition curve with a large enough effect (not every such curve was filed as active); inconclusive = small, poorly fitted or top-dose-only effect, or another doubt; inactive = no such curve, though single readings can be large or run the other way. Only a selection was taken, and actives are over-represented in it overall.
Tick one outcome: yes = active, no = inactive

Please review the entries below; each comes with its answer.
O=C(Nc1nnc(SCc2ccc(Cl)cc2Cl)s1)C1COc2ccccc2O1 (stereo not drawn); no
COc1cccc(N(Cc2nnc3n2CCCCC3)C(=O)Nc2ccccc2F)c1; no
COC(=O)CCC(=O)N1CCCC(CO)(Cc2ccccc2)C1 (stereo not drawn); no

*Q* Per the assay record, what outcome was assigned to `CCCC(=O)NC(=S)Nc1ccc(CN2CCOCC2)cc1` ?
*A* no

*Q* Per the assay record, what outcome was assigned to `CCOC(=O)Cn1c(N)c(C(=O)OC)sc1=S` ?
*A* no

*Q* Per the assay record, what outcome was assigned to `COc1ccc(/C=N/NC(=O)c2ccccc2)cc1OS(=O)(=O)c1ccccc1` ?
*A* yes

*Q* Per the assay record, what outcome was assigned to `COc1ccc(CC(=O)NCc2nnc(SCC(=O)Nc3ncc(C)s3)n2C)cc1` ?
*A* no

*Q* Per the assay record, what outcome was assigned to `CS(=O)(=O)N(CC(=O)NC1CCCC1)Cc1ccc(F)cc1` ?
*A* no

*Q* Per the assay record, what outcome was assigned to `CCOC(=O)C1=C(O)CSC1=Nc1cccc(Cl)c1` ?
*A* no

*Q* Per the assay record, what outcome was assigned to `Clc1cccc(N=C2NN=C(c3ccc4c(c3)OCCO4)CS2)c1` ?
*A* yes

*Q* Per the assay record, what outcome was assigned to `COc1ccc(OC)c2[nH]c(=O)c(CCNC(=O)C(=O)c3c[nH]c4ccccc34)cc12` ?
*A* no

*Q* Per the assay record, what outcome was assigned to `Cc1cc(C)nc(N2CCC(C(=O)Nc3ccc4c(c3)OCCO4)CC2)n1` ?
*A* no

*Q* Per the assay record, what outcome was assigned to `COC(=O)c1nc(NC(=O)c2ccc(C(C)(C)C)cc2)n[nH]1` ?
*A* no

*Q* Per the assay record, what outcome was assigned to `CCOc1cccc(C(=O)Nc2cnn(Cc3ccccc3)c2)c1` ?
*A* yes

*Q* Per the assay record, what outcome was assigned to `COCCOC(=O)c1sc(=S)n(CCOC)c1N` ?
*A* yes

*Q* Per the assay record, what outcome was assigned to `CC(=O)Oc1ccc(C)cc1N1C(=O)c2ccc(C(=O)O)cc2C1=O` ?
*A* no

*Q* Per the assay record, what outcome was assigned to COc1ccc(C2CC(c3cccs3)=NN2C(=O)CSc2nncs2)cc1OC (stereo not drawn) ?
*A* no

###

Biological target: Aldehyde dehydrogenase 1A1 (Homo sapiens)
Test: qHTS Assay for Inhibitors of Aldehyde Dehydrogenase 1 (ALDH1A1)
Details: Purified ALDH1A1, NADH fluorescence, propionaldehyde substrate; series mostly up to 75.3 µM
Screen size: about 220,000 compounds; about 16,000 (7.3%) were called active. About 25% were inconclusive and are not listed. Calls follow the shape of the dose curve; as a rule, active = well fitted inhibition curve with a large enough effect (not every such curve was filed as active); inconclusive = small, poorly fitted or top-dose-only effect, or another doubt; inactive = no such curve, though single readings can be large or run the other way. Only a selection was taken, and actives are over-represented in it overall.
Tick one outcome: yes (1) (active), no (0) (inactive)

Please review the entries below; each comes with its answer.
COc1cccc(C(=O)Nc2nc3ccc(S(C)(=O)=O)cc3s2)c1; no (0)
O=C(N/N=C/c1ccco1)c1ccc(NC(=O)C2CC2)cc1; no (0)
O=C(CN(CC1CCCO1)C(=O)CNS(=O)(=O)c1ccc(F)cc1)NCc1ccco1 (configuration not stated); no (0)

*Q* Per the assay record, what outcome was assigned to Cn1nccc1NC(=O)CC(CC(=O)O)c1ccccc1 (configuration not stated) ?
*A* no (0)

*Q* Per the assay record, what outcome was assigned to `Cc1nnsc1C(=O)Nc1cccc(Cl)c1C` ?
*A* no (0)

*Q* Per the assay record, what outcome was assigned to `CCCn1nc(C(=O)N2CCCc3ccccc32)c2ccccc2c1=O` ?
*A* no (0)
